Where these numbers come from: PubChem BioAssay (EPA / NIEHS)

Read-out: Cyclin D1 (CCND1), CCND1 (gene 595)
protocolDescription: LTEA_HepaRG_CCND1: Life Technologies and Expression Analysis (LTEA) Assay for Cyclin D1 (CCND1) using HepaRG (AID 2283451)
testParameters: mRNA level, 48 h; actives raise or lower the signal
Activity calls are given as the source filed them. How the source made its calls: active means hit-call score of the fitted dose curve at least 0.9, where 1 is the maximum; inactive means score below 0.9.
Permitted responses: active, inactive

Recorded results for 7 compounds are shown here.
# compound, class
rows = [
    ("CCCCC(C#N)(Cn1cncn1)c1ccc(Cl)cc1 (stereo not drawn)", "inactive"),
    ("N#Cc1c(Cl)cccc1Cl", "inactive"),
    ("CCCCC(O)(Cn1cncn1)c1ccc(Cl)cc1Cl (stereo not drawn)", "active"),
    ("CCN(CC)c1nc(C)cc(OP(=S)(OC)OC)n1", "inactive"),
    ("Cc1cnc(C2=NC(C)(C(C)C)C(=O)N2)c(C(=O)O)c1 (stereo not drawn)", "inactive"),
    ("COP(=S)(OC)Oc1ccc([N+](=O)[O-])c(C)c1", "inactive"),
    ("CN=C=S", "inactive"),
]

Now take the following compound into account.
Recorded call for "N#Cc1c[nH]cc1-c1cccc2c1OC(F)(F)O2" ?
active

###

protocolDescription: TOX21_p53_BLA_p2_viability: Viability Assessment in the Tox21 HCT-116 p53 Agonism Beta-lactamase Assay, Phase 2 (AID 2283591);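 further: compound exposure lasted 16 h at 37 °C; actives lower the ATP signal meaning cytotoxicity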
Records with an inconclusive call do not appear. Active and inactive are the calls of the source. Rule for the calls: active = hit-call score of the fitted dose curve at least 0.9, where 1 is the maximum; inconclusive = response in the unintended direction; inactive = score below 0.9.
Permitted responses: Yes (active), No (inactive)

# compound, class
rows = [
    ("COC(=O)NC(=S)Nc1ccccc1NC(=S)NC(=O)OC", "No"),
    ("CC(C)N1C(=O)N(c2ccccc2)CSC1=NC(C)(C)C", "Yes"),
    ("CN/C(=N\\[N+](=O)[O-])NCc1cnc(Cl)s1", "No"),
    ("COCC(C)N(C(=O)CCl)c1c(C)csc1C (stereo unspecified)", "No"),
    ("COc1ccc(-c2ccccc2)cc1NNC(=O)OC(C)C", "No"),
]

Now take the following compound into account.
Recorded call for CC1(C)CCC(=Cc2ccc(Cl)cc2)C1(O)Cn1cncn1 (stereo unspecified) ?
No

###

Read-out: Early growth response protein 1 (EGR1) transcription factor, EGR1 (gene 1958)
protocolDescription: LTEA_HepaRG_EGR1: Life Technologies and Expression Analysis (LTEA) Assay for Early growth response protein 1 (EGR1) transcription factor using HepaRG (AID 2283490)
testParameters: mRNA level, 48 h; actives raise or lower the signal
The source made the active and inactive calls. Rule for the calls: active = hit-call score of the fitted dose curve at least 0.9, where 1 is the maximum; inactive = score below 0.9.
endpointLabel: outcome

# compound, measuredResult
measured = [
    ("CCNP(=S)(OC)O/C(C)=C/C(=O)OC(C)C (centres undefined)", "inactive"),
    ("CC1(C)C(C(=O)OC(C#N)c2cccc(Oc3ccccc3)c2)C1(C)C (centres undefined)", "inactive"),
    ("CN=C=S", "inactive"),
    ("CC1(C)CON(Cc2ccccc2Cl)C1=O", "inactive"),
]

###

Read-out: Thyroid Hormone Responsive (THRSP), THRSP (gene 7069)
protocolDescription: LTEA_HepaRG_THRSP: Life Technologies and Expression Analysis (LTEA) Assay for Thyroid Hormone Responsive (THRSP) using HepaRG (AID 2283536)
testParameters: mRNA level, 48 h; actives raise or lower the signal
Activity calls are given as the source filed them. How the source made its calls: active means hit-call score of the fitted dose curve at least 0.9, where 1 is the maximum; inactive means score below 0.9.
Permitted responses: yes (1) for active, no (0) for inactive

Recorded call for Cc1cnc(C2=NC(C)(C(C)C)C(=O)N2)c(C(=O)O)c1 (stereo unspecified) ?
no (0)

Recorded call for CCCCC(C#N)(Cn1cncn1)c1ccc(Cl)cc1 (stereo unspecified) ?
yes (1)

Recorded call for O=C1C2CC=CCC2C(=O)N1SC(Cl)(Cl)Cl (stereo unspecified) ?
yes (1)

Recorded call for "N#Cc1c(Cl)cccc1Cl" ?
no (0)

Recorded call for "CC1(C)CON(Cc2ccccc2Cl)C1=O" ?
no (0)

Recorded call for "CC(C)Nc1nc(Cl)nc(NC(C)C)n1" ?
no (0)

Recorded call for "COC(=O)NS(=O)(=O)c1ccc(N)cc1" ?
no (0)

Recorded call for "COc1cc(Cl)c(OC)cc1Cl" ?
no (0)

Recorded call for "CCOP(=S)(OCC)Oc1nc(Cl)n(C(C)C)n1" ?
yes (1)

Recorded call for CCOc1cc(C(C)(C)C)ccc1C1COC(c2c(F)cccc2F)=N1 (stereo unspecified) ?
no (0)

Recorded call for "COc1cc(OC)nc(NC(=O)NS(=O)(=O)c2ncccc2OCC(F)(F)F)n1" ?
no (0)

Recorded call for "CC(C)Oc1cccc(NC(=O)c2ccccc2C(F)(F)F)c1" ?
no (0)

Recorded call for CC(C)C1(C)N=C(c2ncccc2C(=O)O)NC1=O (stereo unspecified) ?
no (0)

Recorded call for "COP(=S)(OC)Oc1ccc([N+](=O)[O-])c(C)c1" ?
no (0)

Recorded call for "CCNC(=O)NC(=O)C(C#N)=NOC" ?
no (0)

Recorded call for "CNC(=O)Oc1cccc2ccccc12" ?
no (0)

Recorded call for "CNC(=O)N(C)c1nnc(C(C)(C)C)s1" ?
no (0)

Recorded call for "COP(=O)(OC)O/C(C)=C/C(=O)N(C)C" ?
no (0)
